Each entry below lists one item and its recorded IP value.
System: Human immunodeficiency virus type 1 integrase (Human immunodeficiency virus 1), Q7ZJM1 [Y143R]
test description: Inhibition of HIV-1 integrase Y143R mutant strand transfer activity assessed as reduction in viral replication
outcome measure: IP (nM)

molecule | outcome measure | reported result
O=C1N[C@]2(CC[C@H]3C[C@H]32)n2c1c1c(c(O)c2=O)C(=O)N(Cc2ccc(F)c(Cl)c2)CC1 | IP | 28
O=C1c2c(c3n(c(=O)c2O)C2(CCC4CC42)N(CCN2C(=O)CCC2=O)C3=O)CCN1Cc1ccc(F)c(Cl)c1 (stereo not given) | IP | 11
O=C1c2c(c3n(c(=O)c2O)[C@@H](C2CC2)N(C2CC2)C3=O)CCN1Cc1ccc(F)c(Cl)c1 | IP | 142
N#Cc1cccc2c1[C@]1(CC2)NC(=O)c2c3c(c(O)c(=O)n21)C(=O)N(Cc1ccc(F)c(Cl)c1)CC3 | IP | 4
C[C@H](O)CN1C(=O)c2c3c(c(O)c(=O)n2[C@@]12CC[C@H]1C[C@H]12)C(=O)N(Cc1ccc(F)c(Cl)c1)CC3 | IP | 11
